The measured values listed here are drawn from PubChem BioAssay (NCATS).

# Assay Explanation: Quantitative High-Throughput drug screen in 47 multiple myeloma cell lines against the NCATS MIPE library collection: MM1S_ATCC cell viability assay (AID 1918980); also: nearly all actives have a fitted effect of over 45% in size
# Test Settings: MM1S myeloma viability, CellTiter-Glo ATP luminescence, 48 h; series mostly up to 45.8 µM
Inconclusive results are not listed. Active and inactive are the calls of the source. Calls follow the shape of the dose curve; as a rule, active = well fitted cell-killing curve with a large enough effect; inconclusive = small, poorly fitted or top-dose-only effect, or effect the other way; inactive = no such curve, though single readings can be large or run the other way.
Field 'call' accepts YES (active), NO (inactive)

-- ask Dear colleague, could you share the recorded outcome for COc1ccccc1[C@H](c1cccc2ccccc12)[C@@](C)(C#N)C(=O)N1CCC(c2cccc(C(F)(F)F)c2)CC1 when you have a moment?
-- reply YES

-- ask Now this one: NCCc1ccc(O)c(O)c1
-- reply YES

-- ask Now this one: CS(=O)(=O)Oc1ccc2c(NC(N)=O)c(C(=O)c3ccc(Cl)cc3Cl)oc2c1
-- reply YES

-- ask Now this one: CCC(C)(C)C(=O)O[C@H]1C[C@@H](C)C=C2C=C[C@H](C)[C@H](CC[C@@H]3C[C@@H](O)CC(=O)O3)[C@H]21
-- reply YES

-- ask Now this one: CCc1cncnc1N1CCN(Cc2nc3ccc(C(F)(F)F)cc3[nH]2)CC1
-- reply YES

-- ask Now this one: CO[C@@H]1[C@H](N(C)C(=O)c2ccccc2)C[C@H]2O[C@]1(C)n1c3ccccc3c3c4c(c5c6ccccc6n2c5c31)C(=O)NC4
-- reply YES

-- ask Now this one: CC(c1cc2ccccc2s1)N(O)C(N)=O (stereo not given)
-- reply NO

-- ask Now this one: CC(C)(C)NCC(O)c1ccc(O)c(CO)c1 (stereo not given)
-- reply YES

-- ask Now this one: CCOC(=O)C1=C[C@]2(CC)CCCN3CCc4c(n1c1ccccc41)[C@@H]32
-- reply YES

-- ask Now this one: C1COC(NC(C2CC2)C2CC2)=N1
-- reply NO

-- ask Now this one: COc1ccc(-c2oc3cc(OC)ccc3c2C(=O)c2ccc(C#N)cc2)cc1
-- reply YES

-- ask Now this one: Cc1cccc(-c2nn(C(=S)Nc3ccccc3)cc2-c2ccnc3ccccc23)n1
-- reply YES

-- ask Now this one: CC(C)(N)C(=O)N[C@H](COCc1ccccc1)C(=O)N1CCC2(CC1)CN(S(C)(=O)=O)c1ccccc12
-- reply YES

-- ask Now this one: CN(C)c1ccc(C2Nc3ccc4ccccc4c3C3=C2C(=O)CC(C)(C)C3)cc1Br (stereo not given)
-- reply NO

-- ask Now this one: CNC[C@H](O)c1cccc(O)c1
-- reply NO

-- ask Now this one: C[C@@H]1CN(Cc2ccc(F)cc2)[C@@H](C)CN1C(=O)c1cc2c(C(=O)C(=O)N(C)C)cn(C)c2cc1Cl
-- reply YES

-- ask Now this one: Cn1cc(-c2ccc3nnc(C(F)(F)c4ccc5ncccc5c4)n3n2)cn1
-- reply YES

-- ask Now this one: COc1ccc(CC2=NN3C([C@@H](CCc4ccccc4)[C@@H](C)O)=NC(C)C3C(=O)N2)cc1OC (stereo not given in full)
-- reply NO

-- ask Now this one: COc1ccc(-c2ccc3c(N4CCOCC4)nc(N4C[C@@H](C)O[C@@H](C)C4)nc3n2)cc1CO
-- reply YES

-- ask Now this one: COc1ccc(-c2ccc3c(N4CCOC[C@H]4C)nc(N4CCOC[C@H]4C)nc3n2)cc1CO
-- reply YES
